test system: antiserum raised to Immunogen I; test: Competitive ELISA with IgG fraction of antiserum raised to Immunogen I (second bleed) and hapten 1-HRP detecting agent; format: binding, sheep; details: Table 2; cross-reactant tested at 100 ng/ml; relative to UR-144 N-pentanoic acid
Readout Label: % Cross-reactivity (CR)

- Compound: "CN1CCCCC1Cn1cc(C(=O)c2cccc3ccccc23)c2ccccc21 (stereo not drawn) [AM1220]"
  Value: "<3.0%"
- Compound: "CCCCCn1cc(C(=O)c2ccc(Cl)c3ccccc23)c2ccccc21 [JWH-398]"
  Value: "<3.0%"

In the following, a different compound is considered.
Input: Value lookup for % Cross-reactivity (CR); key = CCCCCn1cc(C(=O)c2ccc(OC)cc2)c2ccccc21 [RCS 4]
Output: <3.0%
